Ref: paper PMC4126480

Molecular target: CYP2C9 (Homo sapiens, UniProt P11712)
Construct: purchased BD Gentest (Woburn, MA, USA); host or cells: baculovirus expression system
Sequence (P11712 whole entry): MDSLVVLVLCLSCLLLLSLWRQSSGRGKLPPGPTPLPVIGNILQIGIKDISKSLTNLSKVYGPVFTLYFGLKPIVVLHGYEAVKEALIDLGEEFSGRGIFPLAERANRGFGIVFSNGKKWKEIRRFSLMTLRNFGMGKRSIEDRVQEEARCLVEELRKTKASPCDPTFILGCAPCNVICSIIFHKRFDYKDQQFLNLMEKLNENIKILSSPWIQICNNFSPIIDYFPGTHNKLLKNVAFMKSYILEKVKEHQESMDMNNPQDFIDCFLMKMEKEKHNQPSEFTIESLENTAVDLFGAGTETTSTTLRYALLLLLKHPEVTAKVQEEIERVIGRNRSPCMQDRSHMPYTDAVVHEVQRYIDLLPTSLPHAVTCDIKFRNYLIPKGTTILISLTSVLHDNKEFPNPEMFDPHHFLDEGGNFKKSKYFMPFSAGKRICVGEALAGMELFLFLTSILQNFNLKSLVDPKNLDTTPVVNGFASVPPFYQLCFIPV
Experiment: Prediction of in vivo HDI from in vitro results, CYP2C9
Set-up: key: If the IC50 values were lower than the GIT or plasma concentration, then the test compound or extract is likely to cause HDI in vivo
Conditions: CYP2C9; IC50 compared with estimated GIT and plasma concentrations

{"columns": ["compound", "tgt", "Likelihood of causing HDI"],
 "data": [
  ["CCCC/C=C\\CCCCCCCCCC1=C(c2c(O)cc(O)cc2CCCCCCCCC/C=C\\CCCC)C(=O)C=C(OC)C1=O", "CYP2C9 (Homo sapiens, UniProt P11712)", "likely"],
  ["CCCC/C=C\\CCCCCCCCCc1cc(O)cc(O)c1 [5-[10(Z)-pentadecenyl]resorcinol]", "CYP2C9 (Homo sapiens, UniProt P11712)", "likely"]
]}

====

Molecular target: CYP2C9 (Homo sapiens, UniProt P11712)
Construct: purchased BD Gentest (Woburn, MA, USA); host or cells: baculovirus expression system
Test: Time dependent inhibition (pre-incubation assay) of recombinant CYP2C9
Assay type: in vitro ADME
Details: recombinant CYP2C9, 30 min pre-incubation
readout-type: pIC50
Quick note: pIC50 means taking -log10 of the concentration in moles per liter.

{"columns": ["compound", "quantitative-readout"],
 "data": [
  ["CCCC/C=C\\CCCCCCCCCc1cc(O)cc2oc3cc(OC)c(O)c(CCCCCCCCC/C=C\\CCCC)c3c12 [Fatimahol]", 4.64],
  ["CCCC/C=C\\CCCCCCCCCc1cc(O)cc(O)c1 [5-[10(Z)-pentadecenyl]resorcinol]", 5.10],
  ["CCCC/C=C\\CCCCCCCCCc1cc(O)cc(OC)c1 [Belamcandol B]", 4.64]
]}

From here, focus on the item given below.
In: // lookup pIC50 for CCCC/C=C\CCCCCCCCCC1=C(c2c(O)cc(O)cc2CCCCCCCCC/C=C\CCCC)C(=O)C=C(OC)C1=O [Demethylbelamcandaquinone B]
Out: 4.66
